molecular target: MYC (p64);MAX (p21), in MYC:MAX (human;human, UniProt P01106-1;P61244-2 1-439;1-151, |); assay: protein-binding microarray (anti-MAX antibody); PBM: 15 mM Tris-HCl pH 7.5, 100 mM KCl, 0.075% NP40, 7.5 mM beta-mercaptoethanol, 375 ng/ul BSA, 8 ng/ul poly(dA-dT):(dA-dT), 550 ng complex, 60 min, room tempe; high values mean tight binding; settings: protein: recombinant;recombinant; tags: 6xHis;6xHis; copies: 1;1; label: 3' end of printed strand (linker) attached to glass slide; dsDNA, one strand shown
Sequence (P01106 16-454, chain 1 of 2): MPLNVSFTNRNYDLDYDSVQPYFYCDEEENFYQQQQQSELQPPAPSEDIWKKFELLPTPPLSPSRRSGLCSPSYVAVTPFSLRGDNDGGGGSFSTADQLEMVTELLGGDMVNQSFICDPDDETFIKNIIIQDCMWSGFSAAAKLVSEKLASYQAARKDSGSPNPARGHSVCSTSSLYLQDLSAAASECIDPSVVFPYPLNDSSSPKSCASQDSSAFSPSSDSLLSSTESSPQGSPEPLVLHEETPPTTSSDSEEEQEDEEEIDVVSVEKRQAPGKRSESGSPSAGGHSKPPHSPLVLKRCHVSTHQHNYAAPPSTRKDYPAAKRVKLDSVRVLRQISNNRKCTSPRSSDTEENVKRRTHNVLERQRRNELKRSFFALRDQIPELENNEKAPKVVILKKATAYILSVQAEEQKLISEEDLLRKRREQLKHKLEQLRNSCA
Sequence (P61244 other isoform, or with tags, fused parts or gaps |, chain 2 of 2): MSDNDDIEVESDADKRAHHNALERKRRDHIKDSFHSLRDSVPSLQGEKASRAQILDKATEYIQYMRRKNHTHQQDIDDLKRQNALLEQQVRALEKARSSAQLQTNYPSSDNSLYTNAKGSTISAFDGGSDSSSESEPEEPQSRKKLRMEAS
The full ranking holds about 5,000 sequences; the median of “log2 normalized fluorescence” is about 0.089, and the highest 2% start at about 0.81. This is one part of a sample in which the highest values are shown more often than they occur.
reported-metric: binding signal

# monomer-sequence, binding signal
records = [
    ("CCGGCTGACACTTAGTATTAATAGCTAAGATTACTATATCGACG", "0.231 log2 normalized fluorescence"),
    ("CCGGCTGACCGGGTGTATTAATAGCTAAGATTACTATATCGACG", "0.119 log2 normalized fluorescence"),
    ("CCGGCTGATCCCCCGTATTAATAGCTAAGATTACTATATCGACG", "0.0512 log2 normalized fluorescence"),
    ("CCGGCTGACACGTGTTTTTAATAGCTAAGATTACTATATCGACG", "0.847 log2 normalized fluorescence"),
    ("CCGGCTGACACGTGCCCTTAATAGCTAAGATTACTATATCGACG", "0.7 log2 normalized fluorescence"),
    ("CCGGCTGAAACGTTGTATTAATAGCTAAGATTACTATATCGACG", "0.435 log2 normalized fluorescence"),
]

If you can, please state the reported binding signal value of CCGGCTGAATGTTGGTATTAATAGCTAAGATTACTATATCGACG . 0.176 log2 normalized fluorescence

And CCGGCTGAAACCAAGTATTAATAGCTAAGATTACTATATCGACG ? 0.0737 log2 normalized fluorescence

And CCGGCAGACAAGTGCTATTAATAGCTAAGATTACTATATCGACG ? 0.353 log2 normalized fluorescence

And CCGGCTGAAAGAGTGTATTAATAGCTAAGATTACTATATCGACG ? 0.0309 log2 normalized fluorescence

And CCGGCTGAACGTGAGTATTAATAGCTAAGATTACTATATCGACG ? 0.437 log2 normalized fluorescence
